# assay_system: T1, extracellular domain of human IL12RB1 (hIL12Rb1 ECD) (human, UniProt P42701 24-545)
# T1 construct: The immunogen was a fusion of the ECD with the human IgG1 hinge and Fc; also called IL12Rβ1; CD212
# assay_explanation: periplasmic extract ELISA (PE-ELISA) of phage clones, colorimetric
measurement_type: binding result

{"columns": ["binder", "observed_value"],
 "data": [
  ["hIL12Rb1_VHH6 (VHH, Phagemid clone with his-tag, periplasmic extract) VHH: QVQLQESGGGSVQAGGSLRLSCAASRYTYTNNFMAWFRQAPGKEREGVAAIYTGDGYAYYFYSVKGRFTISQDNDENMLYLQMNSLKPEDTAMYYCAAMERRIGTRRMTENAEYKYWGQGTQVTVSS", "binds"],
  ["hIL12Rb1_VHH22 (VHH, Phagemid clone with his-tag, periplasmic extract) VHH: QVQLQESGGGSVQAGGSLRLSCTASGYTYSSAFMAWFRQAPGKEREGVAAIYTRDGGTVYADSVKGRFTISQDNAKNTLYLQMNSLKAEDTAMYYCAAKIPQPGRASLLDSQTYDYWGQGTQVTVSS", "binds"]
]}

Value source: patent US20230279126A1
